Where these numbers come from: the SangsterLogP compilation

- assayOverview: method code SF-AS, from PMID: 6889867
- conditionDescription: pH 7.4
So basically: is logD under 2? Then satisfied. Not under? Then not satisfied.

Below are worked cases with known answers.
compound: CCOc1cc(Cc2cnc(N)nc2N)cc(OCC)c1-n1cccc1
category: not satisfied

compound: CNc1cc(Cc2cnc(N)nc2N)cc(N(C)C)c1OC
category: satisfied

compound: COc1cc(Cc2cnc(N)nc2N)cc(OC)c1Br
category: satisfied

compound: COc1cc(Cc2cnc(N)nc2N)cc(OC)c1C(C)C
category: not satisfied

compound: COc1cc(Cc2cnc(N)nc2N)cc(Cl)c1OC
category: satisfied

compound: COc1cc(Cc2cnc(N)nc2N)cc(I)c1OC
category: not satisfied

compound: COc1cc(Cc2cnc(N)nc2N)cc(OC)c1C(C)=O
category: satisfied

compound: O=C1CN=C(c2ccccc2F)c2cc(I)ccc2N1CC(O)CO (stereo not drawn)
category: satisfied

compound: Cc1cc2c(cc1Cc1cnc(N)nc1N)OCO2
category: satisfied

compound: COc1cc(Cc2cnc(N)nc2N)cc(OCc2ccccc2)c1OCc1ccccc1
category: not satisfied

Switching to the query record.
Input CCOc1cc(Cc2cnc(N)nc2N)cc(OCC)c1N ; condition: logD strictly below 2. Does it hold?
satisfied
